Target: human α-thrombin (Homo sapiens, UniProt P00734)
Construct: 50 μl human α-thrombin (Kordia); purchased Kordia
Experiment: Determination of Ki for thrombin inhibition (chromogenic or fluorogenic substrate, Dixon)
Assay type: biochemical
Conditions: Table 2, selectivity quotient
Experimental readout: Ki Trypsin/Ki Thrombin

Here are 3 compounds together with their reported answers.
N=C(N)c1ccc(CNC(=O)[C@@H]2CCCN2C(=O)[C@H](CC(=O)OCc2ccccc2)NS(=O)(=O)c2ccc3ccccc3c2)cc1 [compound 36] | 13.6
COc1ccc(S(=O)(=O)N[C@@H](CC(=O)NCc2cccc(CN)c2)C(=O)N2CCC[C@H]2C(=O)NCc2ccc(C(=N)N)cc2)cc1 [compound 48] | 512
COc1ccc(S(=O)(=O)N[C@@H](CO)C(=O)N2CCC[C@H]2C(=O)NCc2ccc(C(=N)N)cc2)cc1 [compound 51] | 67

a. COc1ccc(S(=O)(=O)N[C@@H](CC(=O)NCc2ccc(CN)cc2)C(=O)N2CCC[C@H]2C(=O)NCc2ccc(C(=N)N)cc2)cc1 [compound 45]
b. N=C(N)c1ccc(CNC(=O)C2CCCN2C(=O)C(CO)NS(=O)(=O)c2ccc3ccccc3c2)cc1 (centres unmarked) [compound 38]
Hello, I am sorting some records. Could you say if a or b has the smaller Ki Trypsin/Ki Thrombin value? Write down the label attached to your selection.
b

A. COc1ccc(S(=O)(=O)NC(CC(N)=O)C(=O)N2CCCC2C(=O)NCc2ccc(C(=N)N)cc2)cc1 (centres unmarked) [compound 50]
B. COc1ccc(S(=O)(=O)NC(CC(=O)NCc2cccc(C#N)c2)C(=O)N2CCCC2C(=O)NCc2ccc(C(=N)N)cc2)cc1 (centres unmarked) [compound 46]
Endpoint returns the identifier whose Ki Trypsin/Ki Thrombin is numerically larger, either A or B . Returns: label corresponding to the selected item.
B

----------
Target: human α-thrombin (Homo sapiens, UniProt P00734)
Construct: 50 μl human α-thrombin (Kordia); purchased Kordia
Assay: Determination of Ki for thrombin inhibition (chromogenic or fluorogenic substrate, Dixon)
Assay type: biochemical
Conditions: Table I, selectivity quotient
Experimental readout: Ki Trypsin/Ki Thrombin

Cc1cc(C)c(S(=O)(=O)NCC(=O)N2CCC[C@H]2C(=O)NCc2ccc(C(=N)N)cc2)c(C)c1 | 0.80
N=C(N)c1ccc(CNC(=O)[C@@H]2CCCN2C(=O)CNS(=O)(=O)Cc2ccccc2)cc1 | 2.1
Cc1c(C)c(C)c(S(=O)(=O)NCC(=O)N2CCC[C@H]2C(=O)NCc2ccc(C(=N)N)cc2)c(C)c1C | 2.2

A. N=C(N)c1ccc(CNC(=O)[C@@H]2CCCN2C(=O)CNS(=O)(=O)c2ccc(Cl)c(Cl)c2)cc1
B. N=C(N)c1ccc(CNC(=O)[C@@H]2CCCN2C(=O)CNS(=O)(=O)c2ccccc2)cc1
C. COc1ccc(S(=O)(=O)NCC(=O)N2CCC[C@H]2C(=O)NCc2ccc(C(=N)N)cc2)cc1C
Falling order of Ki Trypsin/Ki Thrombin, please. The response must list the labels following the requested ordering.
C, A, B
(C: 20, A: 2.3, B: 0.96)

----------
Target: plasmin (Homo sapiens)
Sequence (P00747 581-810 limits assumed, species assumed): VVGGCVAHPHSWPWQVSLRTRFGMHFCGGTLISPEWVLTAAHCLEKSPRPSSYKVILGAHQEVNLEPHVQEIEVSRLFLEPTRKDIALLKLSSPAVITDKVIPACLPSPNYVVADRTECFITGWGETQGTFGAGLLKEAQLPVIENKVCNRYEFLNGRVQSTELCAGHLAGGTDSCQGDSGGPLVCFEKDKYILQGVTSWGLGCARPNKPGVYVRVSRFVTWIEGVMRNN
Sequence (P00747 97-580 partner limits assumed, species assumed): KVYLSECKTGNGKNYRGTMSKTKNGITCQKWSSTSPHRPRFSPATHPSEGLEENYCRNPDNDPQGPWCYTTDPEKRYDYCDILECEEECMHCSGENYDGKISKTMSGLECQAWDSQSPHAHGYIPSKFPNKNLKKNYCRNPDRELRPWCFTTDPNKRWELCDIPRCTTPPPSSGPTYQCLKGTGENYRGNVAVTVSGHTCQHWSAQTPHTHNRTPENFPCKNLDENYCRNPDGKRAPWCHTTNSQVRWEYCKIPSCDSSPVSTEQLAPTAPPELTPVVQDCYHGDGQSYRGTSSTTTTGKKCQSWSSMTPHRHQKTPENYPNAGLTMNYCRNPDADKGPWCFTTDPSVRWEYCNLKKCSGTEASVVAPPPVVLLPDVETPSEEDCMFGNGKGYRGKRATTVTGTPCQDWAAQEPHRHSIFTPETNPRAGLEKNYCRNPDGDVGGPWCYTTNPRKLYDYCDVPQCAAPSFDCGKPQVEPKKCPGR
Experimental readout: pKi
When answering, recall that pKi equals minus log10 of the concentration in mol/L, and write that number alone.

State the recorded pKi for this entry: COc1ccc(S(=O)(=O)NC(CC(N)=O)C(=O)N2CCCC2C(=O)NCc2ccc(C(=N)N)cc2)cc1 (stereo not shown)
4.76

----------
Target: human α-thrombin (Homo sapiens, UniProt P00734)
Construct: 50 μl human α-thrombin (Kordia); purchased Kordia
Assay: Determination of Ki for thrombin inhibition (chromogenic or fluorogenic substrate, Dixon)
Type: biochemical
Details: Table I, selectivity quotient
Experimental readout: Ki Trypsin/Ki Thrombin

Answered examples (8):
N=C(N)c1ccc(CNC(=O)[C@@H]2CCCN2C(=O)CNS(=O)(=O)c2ccc(Cl)cc2Cl)cc1 | 1.2
N=C(N)c1ccc(CNC(=O)[C@@H]2CCCN2C(=O)CNS(=O)(=O)c2cccc([N+](=O)[O-])c2)cc1 | 0.42
COc1ccc(S(=O)(=O)NCC(=O)N2CCC[C@H]2C(=O)NCc2ccc(C(=N)N)cc2)cc1Cl | 45
N#Cc1cccc(S(=O)(=O)NCC(=O)N2CCC[C@H]2C(=O)NCc2ccc(C(=N)N)cc2)c1 [33a] | 0.47
Cc1ccc(S(=O)(=O)NCC(=O)N2CCC[C@H]2C(=O)NCc2ccc(C(=N)N)cc2)cc1 | 0.88
Cc1c(C)c(S(=O)(=O)NCC(=O)N2CCC[C@H]2C(=O)NCc2ccc(C(=N)N)cc2)c(C)c2c1OC(C)(C)C2 | 1.2
N=C(N)c1ccc(CNC(=O)[C@@H]2CCCN2C(=O)CNS(=O)(=O)c2ccc3ccccc3c2)cc1 | 6.8
COc1cc(C)c(S(=O)(=O)NCC(=O)N2CCC[C@H]2C(=O)NCc2ccc(C(=N)N)cc2)c(C)c1C | 12.1

P. Cc1cccc(S(=O)(=O)NCC(=O)N2CCC[C@H]2C(=O)NCc2ccc(C(=N)N)cc2)c1
Q. CCOc1ccc(S(=O)(=O)NCC(=O)N2CCC[C@H]2C(=O)NCc2ccc(C(=N)N)cc2)cc1 [33b]
Hey, between P and Q which has a smaller measured Ki Trypsin/Ki Thrombin? Choose, then provide that item's label.
Q
(Q: 0.42, P: 2.9)

----------
Biological target: human α-thrombin (Homo sapiens, UniProt P00734)
Construct: 50 μl human α-thrombin (Kordia); purchased Kordia
Assay: Determination of Ki for thrombin inhibition (chromogenic or fluorogenic substrate, Dixon)
Format: biochemical
Details: Table I, formula (II) compounds
Experimental readout: Ki (nM)

# annotated cases, reported Ki shown
N=C(N)c1ccc(CNC(=O)[C@@H]2CCCN2C(=O)CNS(=O)(=O)Cc2ccccc2)cc1 [compound 6] | 3.6
Cc1cc(C)c(S(=O)(=O)NCC(=O)N2CCC[C@H]2C(=O)NCc2ccc(C(=N)N)cc2)c(C)c1 [compound 24] | 16.6
N=C(N)c1ccc(CNC(=O)[C@@H]2CCCN2C(=O)CNS(=O)(=O)c2ccc(Cl)cc2Cl)cc1 [compound 21] | 15.1

1. Cc1ccc(S(=O)(=O)NCC(=O)N2CCC[C@H]2C(=O)NCc2ccc(C(=N)N)cc2)cc1 [compound 22]
2. N#Cc1ccc(S(=O)(=O)NCC(=O)N2CCC[C@H]2C(=O)NCc2ccc(C(=N)N)cc2)cc1 [compound 34]
3. Cc1cccc(S(=O)(=O)NCC(=O)N2CCC[C@H]2C(=O)NCc2ccc(C(=N)N)cc2)c1 [4b]
Please order the records by their reported Ki, lowest number first. Form field (ranking): labels in requested order.
3, 1, 2

----------
Molecular target: trypsin (Bos taurus, UniProt P00760)
Sequence (P00760 24-246): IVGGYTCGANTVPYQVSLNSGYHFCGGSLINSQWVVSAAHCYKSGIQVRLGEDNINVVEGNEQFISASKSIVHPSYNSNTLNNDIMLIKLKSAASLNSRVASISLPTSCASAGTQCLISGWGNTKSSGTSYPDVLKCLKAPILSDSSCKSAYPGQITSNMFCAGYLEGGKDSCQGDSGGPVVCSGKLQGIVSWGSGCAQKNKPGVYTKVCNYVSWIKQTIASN
Test: Ki values for trypsin, determined analogously
Format: biochemical
Details: Table I, formula (II) compounds
pKi: −log10 of the molar value.
Experimental readout: pKi

COc1cc(C)c(S(=O)(=O)NCC(=O)N2CCC[C@H]2C(=O)NCc2ccc(C(=N)N)cc2)c(C)c1C [compound 2] | 7.80

a. N=C(N)c1ccc(CNC(=O)[C@@H]2CCCN2C(=O)CNS(=O)(=O)CCc2ccccc2)cc1 [compound 31]
b. N=C(N)c1ccc(CNC(=O)[C@@H]2CCCN2C(=O)CNS(=O)(=O)CC2CCCCC2)cc1 [compound 20]
c. Cc1c(C)c(S(=O)(=O)NCC(=O)N2CCC[C@H]2C(=O)NCc2ccc(C(=N)N)cc2)c(C)c2c1OC(C)(C)C2 [compound 28]
d. CC(C)c1cc(C(C)C)c(S(=O)(=O)NCC(=O)N2CCC[C@H]2C(=O)NCc2ccc(C(=N)N)cc2)c(C(C)C)c1 [compound 19]
Arrange items by their pKi values in increasing order. Thanks in advance for listing the labels in the requested order.
c, a, d, b
(c: 7.43, a: 7.78, d: 8.04, b: 8.51)

----------
Biological target: trypsin (Bos taurus)
Assay: Ki values for trypsin, determined analogously
Type: biochemical
Conditions: Table 2, formula (III) compounds
Experimental readout: Ki (µM)

# annotated cases, reported Ki shown
N=C(N)c1ccc(CNC(=O)[C@@H]2CCCN2C(=O)[C@H](CC(=O)OCc2ccccc2)NS(=O)(=O)c2ccc3ccccc3c2)cc1 [compound 36] | 0.0176
COC(=O)C[C@H](NS(=O)(=O)c1ccc(OC)cc1)C(=O)N1CCC[C@H]1C(=O)NCc1ccc(C(=N)N)cc1 [compound 52] | 0.0214

a. COc1ccc(S(=O)(=O)N[C@@H](CC(=O)NCc2ccc(C#N)cc2)C(=O)N2CCC[C@H]2C(=O)NCc2ccc(C(=N)N)cc2)cc1 [compound 44]
b. COc1ccc(S(=O)(=O)N[C@@H](CO)C(=O)N2CCC[C@H]2C(=O)NCc2ccc(C(=N)N)cc2)cc1 [compound 51]
c. N=C(N)c1ccc(CNC(=O)[C@@H]2CCCN2C(=O)[C@H](CN)NS(=O)(=O)c2ccc3ccccc3c2)cc1 [compound 37]
Order the entries by their reported Ki, beginning at the minimum. The labels, placed in the requested order, form the answer.
c, b, a
(c: 0.0103 µM, b: 0.017 µM, a: 0.041 µM)

a. COc1ccc(S(=O)(=O)N[C@@H](CC(=O)NCc2ccccc2)C(=O)N2CCC[C@H]2C(=O)NCc2ccc(C(=N)N)cc2)cc1 [compound 47]
b. N=C(N)c1ccc(CNC(=O)[C@@H]2CCCN2C(=O)[C@@H](CC(N)=O)NS(=O)(=O)c2ccc3ccccc3c2)cc1 [compound 43]
Field: lower recorded Ki (choose a or b ) Lab note: record the label of whichever item you select.
b
(b: 0.0224 µM, a: 0.039 µM)
